pIC50: −log10 of the molar value.
Consider molecules characterized by their pIC50 with Cyclin-dependent kinase 5/CDK5 activator 1 (Homo sapiens, UniProt Q00535).
Sequence (Q00535 whole entry): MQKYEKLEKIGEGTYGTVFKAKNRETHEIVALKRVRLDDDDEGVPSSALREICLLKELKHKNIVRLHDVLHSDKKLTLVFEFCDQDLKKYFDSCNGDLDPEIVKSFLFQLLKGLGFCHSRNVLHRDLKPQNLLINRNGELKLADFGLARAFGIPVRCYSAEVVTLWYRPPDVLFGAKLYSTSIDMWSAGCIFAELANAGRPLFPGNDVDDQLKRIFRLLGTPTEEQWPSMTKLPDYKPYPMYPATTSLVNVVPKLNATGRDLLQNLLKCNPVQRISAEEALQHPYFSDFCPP
Sequence (Q15078 whole entry, further chain): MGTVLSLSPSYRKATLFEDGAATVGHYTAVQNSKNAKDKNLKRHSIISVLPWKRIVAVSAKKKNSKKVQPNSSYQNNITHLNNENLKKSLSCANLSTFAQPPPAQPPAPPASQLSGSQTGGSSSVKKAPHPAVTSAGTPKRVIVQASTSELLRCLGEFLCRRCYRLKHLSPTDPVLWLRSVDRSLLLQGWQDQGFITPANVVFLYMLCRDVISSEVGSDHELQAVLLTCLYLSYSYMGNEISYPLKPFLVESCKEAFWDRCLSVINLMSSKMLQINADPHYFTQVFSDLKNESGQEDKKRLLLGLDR

{"columns": ["structure as smiles", "relation sign", "pIC50"],
 "data": [
  ["O=C1Nc2cc([N+](=O)[O-])ccc2/C1=C1/Nc2ccccc2/C1=N\\O", "=", 6.92],
  ["CC(=O)Nc1ccc2c(c1)/C(=C1/Nc3ccc(Br)cc3/C1=N\\O)C(=O)N2", "=", 5.48],
  ["O=C1Nc2c(Br)cc([N+](=O)[O-])cc2/C1=C1/Nc2ccccc2/C1=N\\O", "<", 5.00],
  ["Nc1ccc2c(c1)/C(=C1/Nc3ccc(Br)cc3/C1=N\\O)C(=O)N2", "=", 6.00],
  ["CC(=O)Nc1ccc2c(c1)/C(=C1/Nc3ccccc3C1=O)C(=O)N2", "=", 7.74]
]}
